Provenance of the data: the supplement of paper PMC8728848

# SYSTEM_UNDER_TEST: Fuc(a1-2)[GalNAc(a1-3)]Gal(b1-3)GlcNAc
# RUN_DESCRIPTION: glycan array binding signal (z-score within array); higher = stronger binding
# CONDITION_SET: glycan notation: IUPAC condensed, linker removed
This is one part of a sample in which the strongest signals are shown more often than they occur.
Attribute: glycan array binding signal (z-score)
PROPERTY_LABEL: glycan array binding signal (z-score)

>>> quantitative_readout("Gal 8 (Mus musculus), Q9JL15 (protein) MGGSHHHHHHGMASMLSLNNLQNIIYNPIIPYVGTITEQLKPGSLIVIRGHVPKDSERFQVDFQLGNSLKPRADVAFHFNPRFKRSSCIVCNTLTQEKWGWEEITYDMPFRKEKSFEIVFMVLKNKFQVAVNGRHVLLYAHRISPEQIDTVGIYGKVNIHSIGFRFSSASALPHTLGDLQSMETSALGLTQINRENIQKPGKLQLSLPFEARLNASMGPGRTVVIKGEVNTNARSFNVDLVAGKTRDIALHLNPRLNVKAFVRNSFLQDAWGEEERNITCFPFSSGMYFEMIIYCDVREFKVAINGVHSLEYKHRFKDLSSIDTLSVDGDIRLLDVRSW")
1
>>> quantitative_readout("ERGIC1-EDTA (Homo sapiens), Q969X5 (protein) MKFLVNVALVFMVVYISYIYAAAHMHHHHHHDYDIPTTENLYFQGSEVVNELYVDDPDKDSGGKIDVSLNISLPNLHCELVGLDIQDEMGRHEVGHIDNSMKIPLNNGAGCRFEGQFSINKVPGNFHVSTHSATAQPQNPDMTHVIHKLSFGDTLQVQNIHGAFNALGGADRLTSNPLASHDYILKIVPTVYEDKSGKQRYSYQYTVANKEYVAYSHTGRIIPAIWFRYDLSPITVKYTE")
0.499
